assay: NCI Yeast Anticancer Drug Screen. Data for the sgs1 mgt1 strain (AID 161); conditions: S. cerevisiae sgs1 mgt1 strain, at 50.0 µM, active compounds read high
This is part of a sample that, as a whole, favours compounds with a hit. Of some 79,000 tested, about 15% had one in any assay.
Quick rule for you: growth inhibition at -10% or higher means MET, lower means NOT MET.

[[record]]
molecule = "CC1(C)C(C(=O)/C=C2\\Nc3ccccc3C2(C)C)=Nc2ccccc21"
answer_label = "MET"

[[record]]
molecule = "CCOC(=O)c1cnc2ccc(OC)cc2c1"
answer_label = "MET"

[[record]]
molecule = "CCOC(CNCCC(=O)OC)OCC"
answer_label = "NOT MET"

[[record]]
molecule = "N#CC(N)c1ccc(OCCCCCCCCCCOc2ccc(C(N)C#N)cc2)cc1 (stereo unspecified)"
answer_label = "NOT MET"

[[record]]
molecule = "CC[C@@]1(O)C[C@H](OC2CC(N(C)C)C(OC3CC(O)C(OC4CC(O)C(O)C(C)O4)C(C)O3)C(C)O2)c2c(cc3c(c2O)C(=O)c2c(O)ccc(O)c2C3=O)[C@H]1C(=O)OC (stereo partly specified)"
answer_label = "NOT MET"

[[record]]
molecule = "CC1(C2(C)CC2(Br)Br)CC1(Br)Br (stereo unspecified)"
answer_label = "MET"

[[record]]
molecule = "CC[C@@]1(OC(=O)CN2CCNCC2)C(=O)OCc2c1cc1n(c2=O)Cc2cc3ccccc3nc2-1"
answer_label = "MET"

[[record]]
molecule = "CC(=O)NNc1nc(C)c(C(=O)NNC(=O)C(=O)Nc2cccc(C(C)=O)c2)s1"
answer_label = "NOT MET"

[[record]]
molecule = "CN(C)c1ccc(/C=C2/CC(=O)N(c3ccccc3)C2=O)cc1"
answer_label = "MET"

[[record]]
molecule = "CC(C)(C)C1CCC(C(=O)c2ccccc2)CC1 (stereo unspecified)"
answer_label = "MET"

[[record]]
molecule = "O=C1Nc2ccccc2C12CCNC2Cc1ccccc1 (stereo unspecified)"
answer_label = "NOT MET"

